TEST_PROTOCOL: Inhibition of Wistar rat intestinal cellobiase by glucose B-test
QUANTITY_MEASURED: IC50 (µM)
Value expressed in µM; do not type the unit.

Request: Requested read-out: IC50. Entry: OC[C@H]1NCC[C@H](O)[C@@H]1O
Response: 100

----------
TEST_PROTOCOL: Inhibition of green coffee bean alpha-galactosidase by spectrophotometry
Parameters: species or system Coffea arabica
QUANTITY_MEASURED: IC50
Express the reported value numerically, then name its unit.

Request: Requested read-out: IC50. Entry: OC[C@H]1NCC[C@@H](O)[C@@H]1O
Response: 56 µM

----------
TEST_PROTOCOL: Inhibition of almond beta-glucosidase by spectrophotometry
Design: species or system Prunus dulcis
QUANTITY_MEASURED: pIC50
Would you please state pIC50, meaning minus log10 of the concentration in mol/L, as a bare number?

Request: Requested read-out: pIC50. Entry: OC[C@H]1NCC[C@H](O)[C@@H]1O
Response: 3.92
